tested on: NCI-H522 non-small cell lung cancer cells; assay: NCI cell proliferation, NCI-H522; format: cell-based, human; conditions: Homo sapiens, NCI-H522; 10 µM; read-out: % Cancer cell growth Inhibition (NCI-H522)
For each entry below, report its inhibition at 10 µM value.
Give a bare numeral; the unit % is implied.

Q) Query (compound): `COc1ccc(CNC(=O)[C@@H]2CS[C@H]3c4ccccc4C(=O)N23)cc1` ; field requested: inhibition at 10 µM
A) 13

Q) Query (compound): `COc1ccc(CNC(=O)[C@@H]2CS[C@@]3(C)c4ccccc4C(=O)N23)cc1OC` ; field requested: inhibition at 10 µM
A) 45

Q) Query (compound): `COc1cc(CNC(=O)[C@@H]2CS[C@H]3c4ccccc4C(=O)N23)cc(OC)c1OC` ; field requested: inhibition at 10 µM
A) 17

Q) Query (compound): `COc1ccc(CNC(=O)[C@@H]2CS[C@@]3(C)c4ccccc4C(=O)N23)cc1` ; field requested: inhibition at 10 µM
A) 28

Q) Query (compound): `COc1cccc(CNC(=O)[C@@H]2CS[C@H]3c4ccccc4C(=O)N23)c1` ; field requested: inhibition at 10 µM
A) 26

Q) Query (compound): `O=C(NCc1ccccc1)[C@@H]1CS[C@H]2c3ccccc3C(=O)N12` ; field requested: inhibition at 10 µM
A) 13

Q) Query (compound): `O=C(NCc1cccc(C(F)(F)F)c1)[C@@H]1CS[C@H]2c3ccccc3C(=O)N12` ; field requested: inhibition at 10 µM
A) 25

Q) Query (compound): `C[C@@]12SC[C@@H](C(=O)NCc3cccc(C(F)(F)F)c3)N1C(=O)c1ccccc12` ; field requested: inhibition at 10 µM
A) 31

Q) Query (compound): `O=C(NCc1ccccc1C(F)(F)F)[C@@H]1CS[C@H]2c3ccccc3C(=O)N12` ; field requested: inhibition at 10 µM
A) 22

====

For each entry below, report its Growth Percent value.
test system: OVCAR-8 (Ovarian Cancer); assay: NCI one dose, OVCAR-8; type: cell-based, human; conditions: OVCAR-8, 1.00E-5 Molar one dose
Give a bare numeral; the unit % is implied.

Q) Lookup: Growth Percent / OVCAR-8 (Ovarian Cancer) / `O=C(NCc1ccccc1)[C@@H]1CS[C@H]2c3ccccc3C(=O)N12`
A) 101.18

Q) Lookup: Growth Percent / OVCAR-8 (Ovarian Cancer) / `COc1ccccc1CNC(=O)[C@@H]1CS[C@H]2c3ccccc3C(=O)N12`
A) 96.60

Q) Lookup: Growth Percent / OVCAR-8 (Ovarian Cancer) / `COc1cccc(CNC(=O)[C@@H]2CS[C@@]3(C)c4ccccc4C(=O)N23)c1`
A) 90.08

Q) Lookup: Growth Percent / OVCAR-8 (Ovarian Cancer) / `O=C(NCc1ccc(Cl)cc1Cl)[C@@H]1CS[C@H]2c3ccccc3C(=O)N12`
A) 97.57

Q) Lookup: Growth Percent / OVCAR-8 (Ovarian Cancer) / `COc1ccc(CNC(=O)[C@@H]2CS[C@H]3c4ccccc4C(=O)N23)cc1OC`
A) 88.68

Q) Lookup: Growth Percent / OVCAR-8 (Ovarian Cancer) / `O=C(NCc1cccc(C(F)(F)F)c1)[C@@H]1CS[C@H]2c3ccccc3C(=O)N12`
A) 94.59

Q) Lookup: Growth Percent / OVCAR-8 (Ovarian Cancer) / `C[C@@]12SC[C@@H](C(=O)NCc3ccccc3)N1C(=O)c1ccccc12`
A) 90.77

Q) Lookup: Growth Percent / OVCAR-8 (Ovarian Cancer) / `COc1cc(CNC(=O)[C@@H]2CS[C@@]3(C)c4ccccc4C(=O)N23)cc(OC)c1OC`
A) 92.35

Q) Lookup: Growth Percent / OVCAR-8 (Ovarian Cancer) / `C[C@@]12SC[C@@H](C(=O)NCc3ccccc3C(F)(F)F)N1C(=O)c1ccccc12`
A) 92.54

Q) Lookup: Growth Percent / OVCAR-8 (Ovarian Cancer) / `C[C@@]12SC[C@@H](C(=O)NCc3cccc(C(F)(F)F)c3)N1C(=O)c1ccccc12`
A) 92.35

Q) Lookup: Growth Percent / OVCAR-8 (Ovarian Cancer) / `COc1ccc(CNC(=O)[C@@H]2CS[C@@]3(C)c4ccccc4C(=O)N23)cc1`
A) 94.06

Q) Lookup: Growth Percent / OVCAR-8 (Ovarian Cancer) / `C[C@@]12SC[C@@H](C(=O)NCc3ccc(Cl)cc3Cl)N1C(=O)c1ccccc12`
A) 93.06

Q) Lookup: Growth Percent / OVCAR-8 (Ovarian Cancer) / `COc1ccc(CNC(=O)[C@@H]2CS[C@@]3(C)c4ccccc4C(=O)N23)cc1OC`
A) 91.42

Q) Lookup: Growth Percent / OVCAR-8 (Ovarian Cancer) / `COc1ccccc1CNC(=O)[C@@H]1CS[C@@]2(C)c3ccccc3C(=O)N12`
A) 95.21

Q) Lookup: Growth Percent / OVCAR-8 (Ovarian Cancer) / `O=C(NCc1ccccc1C(F)(F)F)[C@@H]1CS[C@H]2c3ccccc3C(=O)N12`
A) 94.34

Q) Lookup: Growth Percent / OVCAR-8 (Ovarian Cancer) / `COc1cccc(CNC(=O)[C@@H]2CS[C@H]3c4ccccc4C(=O)N23)c1`
A) 100.28

Q) Lookup: Growth Percent / OVCAR-8 (Ovarian Cancer) / `COc1ccc(CNC(=O)[C@@H]2CS[C@H]3c4ccccc4C(=O)N23)cc1`
A) 99.52

Q) Lookup: Growth Percent / OVCAR-8 (Ovarian Cancer) / `C[C@@]12SC[C@@H](C(=O)NCc3ccccc3Br)N1C(=O)c1ccccc12`
A) 92.33

Q) Lookup: Growth Percent / OVCAR-8 (Ovarian Cancer) / `COc1cc(CNC(=O)[C@@H]2CS[C@H]3c4ccccc4C(=O)N23)cc(OC)c1OC`
A) 103.46
